# Tested on: IL-6 secretion in BV-2 cell
# protocol.details: IL-6 Secretion in BV-2 Cell (L18-MDP stimulated, ELISA)
# Assay type: cell-based
# condition.label: BV-2 mouse microglia cells, 10 µg/ml L18-MDP, 24 hr
Y if IC50 is below 300 nM. N if not; exact matches included in N.

molecular.string	experimental.target	label
Cc1c(-c2ccn3nc(NC(=O)C4CC4)cc3c2)cnc2[nH]ccc12	IL-6 secretion in BV-2 cell	Y
Cc1nc2[nH]ccc2cc1-c1ccn2nc(NC(=O)[C@@H]3C[C@@H]3F)cc2c1	IL-6 secretion in BV-2 cell	N
Nc1c(-c2ccn3nc(NC(=O)[C@@H]4C[C@@H]4F)cc3c2)cnc2[nH]ccc12	IL-6 secretion in BV-2 cell	N
O=C(Nc1cc2cc(-c3cnc4[nH]cc(F)c4c3Cl)ccn2n1)[C@@H]1C[C@@H]1F	IL-6 secretion in BV-2 cell	Y
Cc1c(-c2ccn3nc(NC(=O)[C@@H]4C[C@@H]4F)cc3c2)cnc2[nH]cc(F)c12	IL-6 secretion in BV-2 cell	Y
O=C(Nc1cc2cc(-c3cnc4[nH]ccc4c3)ccn2n1)[C@@H]1C[C@@H]1F	IL-6 secretion in BV-2 cell	Y
Cc1c(-c2ccn3nc(NC(=O)[C@@H]4C[C@H]4F)cc3c2)cnc2[nH]ccc12	IL-6 secretion in BV-2 cell	Y
O=C(Nc1cc2cc(-c3cnc4[nH]cc(Cl)c4c3)ccn2n1)[C@@H]1C[C@@H]1F	IL-6 secretion in BV-2 cell	N

----------
# pIC50 listing for each entry below
# experimental.target: His-tagged recombinant human ABL1 (Homo sapiens (Human))
# Sequence (P00519 whole entry): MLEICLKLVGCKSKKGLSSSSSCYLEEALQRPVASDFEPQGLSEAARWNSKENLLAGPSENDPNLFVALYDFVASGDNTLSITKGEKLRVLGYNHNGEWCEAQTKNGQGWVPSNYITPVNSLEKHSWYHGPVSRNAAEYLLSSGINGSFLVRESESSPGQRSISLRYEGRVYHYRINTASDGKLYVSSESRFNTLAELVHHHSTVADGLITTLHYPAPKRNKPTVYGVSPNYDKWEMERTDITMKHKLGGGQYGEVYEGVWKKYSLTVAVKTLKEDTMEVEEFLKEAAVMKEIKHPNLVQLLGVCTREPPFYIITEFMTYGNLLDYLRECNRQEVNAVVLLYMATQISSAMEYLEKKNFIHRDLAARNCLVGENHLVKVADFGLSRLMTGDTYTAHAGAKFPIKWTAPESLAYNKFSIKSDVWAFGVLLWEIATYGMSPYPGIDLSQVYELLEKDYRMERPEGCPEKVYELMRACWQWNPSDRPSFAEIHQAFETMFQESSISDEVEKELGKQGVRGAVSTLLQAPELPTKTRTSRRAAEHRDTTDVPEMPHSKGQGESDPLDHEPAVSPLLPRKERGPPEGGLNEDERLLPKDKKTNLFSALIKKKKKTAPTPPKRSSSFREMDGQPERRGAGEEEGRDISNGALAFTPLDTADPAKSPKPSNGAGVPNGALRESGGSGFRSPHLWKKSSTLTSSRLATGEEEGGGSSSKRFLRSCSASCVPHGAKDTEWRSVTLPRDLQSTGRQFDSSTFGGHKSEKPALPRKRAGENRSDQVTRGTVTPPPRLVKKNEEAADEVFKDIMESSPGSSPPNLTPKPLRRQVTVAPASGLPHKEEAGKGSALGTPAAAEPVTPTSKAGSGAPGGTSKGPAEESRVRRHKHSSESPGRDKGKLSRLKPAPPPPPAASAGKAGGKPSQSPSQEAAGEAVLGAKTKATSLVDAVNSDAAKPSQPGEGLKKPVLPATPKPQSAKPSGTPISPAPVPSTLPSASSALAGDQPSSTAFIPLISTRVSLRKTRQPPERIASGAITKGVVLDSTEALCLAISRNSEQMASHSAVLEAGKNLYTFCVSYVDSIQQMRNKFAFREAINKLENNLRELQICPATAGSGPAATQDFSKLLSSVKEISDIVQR
# condition.label: read-out: c-Abl IC50; 25 µM ATP, Abltide substrate, 30° C. 30-min
pIC50: −log10 of the molar value.

molecule	pIC50
CCc1c(-c2ccn3nc(NC(=O)[C@@H]4C[C@@H]4F)cc3c2)cnc2[nH]ccc12 [Example 13]	7.91
O=C(Nc1cc2cc(-c3cnc4[nH]c(Cl)cc4c3)ccn2n1)[C@@H]1C[C@@H]1F [Example 18]	8.44
O=C(Nc1cc2cc(-c3cnc4[nH]ccc4c3Cl)ccn2n1)[C@@H]1C[C@@H]1F [Example 2]	8.12
O=C(Nc1cc2cc(-c3cnc4[nH]cc(F)c4c3Cl)ccn2n1)[C@@H]1C[C@@H]1F [Example 30]	8.14
O=C(Nc1cc2cc(-c3cnc4[nH]ccc4c3Cl)ccn2n1)C1CC1 [Example 23]	8.04
Cc1c(-c2ccn3nc(NC(=O)[C@H]4C[C@H]4F)cc3c2)cnc2[nH]ccc12 [Example 20]	8.51
Cc1c(-c2ccn3nc(NC(=O)[C@@H]4C[C@H]4F)cc3c2)cnc2[nH]ccc12 [Example 22]	8.38
Cc1c(-c2ccn3nc(NC(=O)[C@H]4C[C@@H]4F)cc3c2)cnc2[nH]ccc12 [Example 21]	8.48
COc1c(-c2ccn3nc(NC(=O)[C@@H]4C[C@@H]4F)cc3c2)cnc2[nH]ccc12 [Example 6]	8.05
O=C(Nc1cc2cc(-c3cnc4[nH]ccc4c3)ccn2n1)[C@@H]1C[C@@H]1F [Example 1]	9.15
Cc1c(-c2ccn3nc(NC(=O)[C@@H]4C[C@@H]4F)cc3c2)cnc2[nH]cc(F)c12 [Example 24]	8.54
O=C(Nc1cc2cc(-c3cnc4[nH]ccc4c3Cl)ccn2n1)[C@@H]1C[C@H]1F [Example 26]	7.71
Cc1cc2cc(-c3ccn4nc(NC(=O)[C@@H]5C[C@@H]5F)cc4c3)cnc2[nH]1 [Example 8]	8.40
CSc1c(-c2ccn3nc(NC(=O)[C@@H]4C[C@@H]4F)cc3c2)cnc2[nH]ccc12 [Example 14]	7.91
O=C(Nc1cc2cc(-c3cnc4[nH]ccc4c3C3CC3)ccn2n1)[C@@H]1C[C@@H]1F [Example 16]	7.89
Cc1nc2[nH]ccc2cc1-c1ccn2nc(NC(=O)[C@@H]3C[C@@H]3F)cc2c1 [Example 3]	9.15
